# Test system: TBEV target (not specified) (Tick-borne encephalitis virus)
# Run description: ELONA
Assay endpoint: binding signal

>>> readout_value("ATCCGTCACACCTGCTCTTCCCCTAAACTTTTTTGACCTACCTGTATAATTGGCTGGTGTTGGCTCCCGTAT [TBEV-4R]")
"2.12 A405"
>>> readout_value("ATACGGGAGCCAACACCACCATGCCCCTTTAAGTGAATAGACTAGTGGCCGTTGAGAGCAGGTGTGACGGAT [TBEV-5F]")
"2.06 A405"
>>> readout_value("ATACGGGAGCCAACACCACTCGGCACCGCCCTTCCGTATCGGCGAGTAACGTACAGAGCAGGTGTGACGGAT [TBEV-1F]")
"1.94 A405"
>>> readout_value("ATACGGGAGCCAACACCACCGCAGGAGTCCATCAGGGGTTGGCAGTCAGCGCTCAGAGCAGGTGTGACGGAT [TBEV-2F]")
"2.31 A405"
>>> readout_value("ATCCGTCACACCTGCTCTGTACGTTACTCGCCGATACGGAAGGGCGGTGCCGAGTGGTGTTGGCTCCCGTAT [TBEV-1R]")
"2.15 A405"
>>> readout_value("ATCCGTCACACCTGCTCTACATCACATCTGACTGAGTCCATGGCGCTCTGTGTGTGGTGTTGGCTCCCGTAT [TBEV-8R]")
"2.43 A405"
>>> readout_value("ATCCGTCACACCTGCTCTGGGCCAACGGACGGGATCGCGAGGCTAAGACGTCTCTGGTGTTGGCTCCCGTAT [TBEV-6R]")
"2.12 A405"

###

# Test system: WNV envelope peptide (West Nile virus)
# Run description: ELONA
Assay endpoint: binding signal

>>> readout_value("ATACGGGAGCCAACACCACAGCTGATATCGGATGGTCCGGCAGAGCAGGTGTGACGGAT [WNV 19F]")
"2.73 A405"
>>> readout_value("ATACGGGAGCCAACACCACCCGTGGCCTTCACCCAGCCAGGGGCCCCGTCTCTGAGAGCAGGTGTGACGGAT [WNV 20F]")
"2.54 A405"
>>> readout_value("ATACGGGAGCCAACACCATGTCAGGACCTCCATCGCCCGGGCCCGCCGCCGCTGAGAGCAGGTGTGACGGAT [WNV 16F]")
"2.45 A405"
>>> readout_value("ATCCGTCACACCTGCTCTCAGCGGCGGCGGGCCCGGGCGATGGAGGTCCTGACATGGTGTTGGCTCCCGTAT [WNV 16R]")
"2.25 A405"
>>> readout_value("ATACGGGAGCCAACACCACCCCGTCGCCAAGCACTTGGCTGGGCTCTAACGGCCAGAGCAGGTGTGACGGAT [WNV 18F]")
"2 A405"
>>> readout_value("ATCCGTCACACCTGCTCTCAGAGACGGGGCCCCTGGCTGGGTGAAGGCCACGGGTGGTGTTGGCTCCCGTAT [WNV 20R]")
"2.47 A405"
>>> readout_value("ATCCGTCACACCTGCTCTGCCGGACCATCCGATATCAGCTGTGGTGTTGGCTCCCGTAT [WNV 19R]")
"2.18 A405"

###

# Tested on: CCHF envelope peptides (individual peptide not specified) (Crimean-Congo hemorrhagic fever virus)
# Run description: ELONA
Assay endpoint: binding signal (A405)

>>> readout_value("ATCCGTCACACCTGCTCTCGGGACGCGAGCGGCCTGCGGGAACCAGGCGGGGGCTGGTGTTGGCTCCCGTAT [C3-6R]")
2.48
>>> readout_value("ATCCGTCACACCTGCTCTCCAAGGACACGTTACCGTATTGGCCCAACACTATGGTGTTGGCTCCCGTAT [C1-1/7R]")
2.05
>>> readout_value("ATCCGTCACACCTGCTCTACGGCCCTGCACCACTTATTCTAGGCAGTGTTCTTCTGGTGTTGGCTCCCGTAT [C1-10R]")
1.62
>>> readout_value("ATCCGTCACACCTGCTCTGAATCGTAGCGGTCTTGCTCTCAAGGTCCGTCACCATGGTGTTGGCTCCCGTAT [C1-9R]")
1.56
>>> readout_value("ATCCGTCACACCTGCTCTCCAAGGACACGTCACCGTATTGGCCCAACACTATGGTGTTGGCTCCCGTAT [C3-8R]")
1.48
>>> readout_value("ATACGGGAGCCAACACCATAGTGTTGGGCCAATACGGTAACGTGTCCTTGGAGAGCAGGTGTGACGGAT [C1-1/7F]")
1.9
>>> readout_value("ATACGGGAGCCAACACCACAGCTGACAATAGAAGGATATCCTGGGTACCGATGCAGAGCAGGTGTGACGGAT [C3-4F]")
2.67
